Data credit: the RNAGym collection of RNA variant scans (doi:10.1002/anie.201605470)

B1: Osa-1-4 twister ribozyme (parent)
chain: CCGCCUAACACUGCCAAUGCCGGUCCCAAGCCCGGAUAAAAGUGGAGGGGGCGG

variants of: B1; experiment: self-cleavage, relative activity (ratio to wild type); higher = more cleavage; co-transcriptional
Each entry below carries its recorded self-cleavage.
endpoint-name: self-cleavage

biopolymer_sequence="CCGCCUAACACUGCCAAUGACGGUCCCAAGCCCGGAUAAAACUGGAGGGGGCGG [C20A G42C]" endpoint_name=self-cleavage experimental_value=0.17
biopolymer_sequence="CCGCCUAAAACUGCCAAUGCCGGUCCCAAGCCCGGAUAAAUGUGGAGGGGGCGG [A41U C9A]" endpoint_name=self-cleavage experimental_value=0.42
biopolymer_sequence="CCGCCUAACACUGCCAAUGCGGGUCCCAAUCCCGGAUAAAAGUGGAGGGGGCGG [C21G G30U]" endpoint_name=self-cleavage experimental_value=0.02
biopolymer_sequence="CCGCCUUACACUGCCAAUGCCGGUCCCAAGCCCGGAUAAAAGUGGAGGGGGCGG [A7U]" endpoint_name=self-cleavage experimental_value=0.07
biopolymer_sequence="CCGCCUUAGACUGCCAAUGCCGGUCCCAAGCCCGGAUAAAAGUGGAGGGGGCGG [A7U C9G]" endpoint_name=self-cleavage experimental_value=0.05
biopolymer_sequence="CCGCCUAACACUGCCAAAGCCGGUCCCAAGCCCGGAUAAAAGUGGAGGGUGCGG [G50U U18A]" endpoint_name=self-cleavage experimental_value=0.89
biopolymer_sequence="CCGCCUAACACUGCCAAUGCCGGUCCCAAGCCCGGAUAAAAGUCGAGGGGGAGG [C52A G44C]" endpoint_name=self-cleavage experimental_value=0.96
biopolymer_sequence="CCGCCUAACACUGCCAAUGCCGGUCCGAAGCCCGGAUAAAAGUGGAGUGGGCGG [C27G G48U]" endpoint_name=self-cleavage experimental_value=0.02
biopolymer_sequence="CCGCCUAACACUGCCAAUGCCGGUCCCAAGCCCGUAUAUAAGUGGAGGGGGCGG [A39U G35U]" endpoint_name=self-cleavage experimental_value=0.87
biopolymer_sequence="CCGCCUAACACUGCCUAUGCCGGUCCCAAGCCCGGAUAAAAGUGGAAGGGGCGG [A16U G47A]" endpoint_name=self-cleavage experimental_value=0.24
biopolymer_sequence="CCGCCUAACACUGCCAAUGCUGGUCCCAAGCCCGGAUAAAAGUGAAGGGGGCGG [C21U G45A]" endpoint_name=self-cleavage experimental_value=0.22
biopolymer_sequence="CCGCCUAGCACUGCCAAUGCCGGUCCCAAGUCCGGAUAAAAGUGGAGGGGGCGG [A8G C31U]" endpoint_name=self-cleavage experimental_value=0.1
biopolymer_sequence="CCGCCUAACACUGCCAAUGCGGGUCCCAAGCCCGGAUAAAAGUUGAGGGGGCGG [C21G G44U]" endpoint_name=self-cleavage experimental_value=0.08
biopolymer_sequence="CCGCCUAACACUGCCAAUGCCGGUCCUAAGCACGGAUAAAAGUGGAGGGGGCGG [C27U C32A]" endpoint_name=self-cleavage experimental_value=0.04
biopolymer_sequence="CCGCCUAACACUGCCAAUGCGGGUCCCAAGCCCGAAUAAAAGUGGAGGGGGCGG [C21G G35A]" endpoint_name=self-cleavage experimental_value=0.08
biopolymer_sequence="CCGCCUAAGACUGCCAAUGCCGGUCCCAACCCCGGAUAAAAGUGGAGGGGGCGG [C9G G30C]" endpoint_name=self-cleavage experimental_value=0.04
biopolymer_sequence="CCGCCUAACACUGCCAAUGGCAGUCCCAAGCCCGGAUAAAAGUGGAGGGGGCGG [C20G G22A]" endpoint_name=self-cleavage experimental_value=0.08
biopolymer_sequence="CCGCCUAACACUGCCAAUGCCGGUCCCAAGCCCGGAUAAAAGUGGAGGGCGCGG [G50C]" endpoint_name=self-cleavage experimental_value=1.03
biopolymer_sequence="CCGCCUAACACUGCCAAUGCCGGUCCCAAGCCCCGAUACAAGUGGAGGGGGCGG [A39C G34C]" endpoint_name=self-cleavage experimental_value=0.2
biopolymer_sequence="CCGCCUAACACUGCCAAAGCCGGUCCCAAGCCCGGAUAAAAGUGGAGGAGGCGG [G49A U18A]" endpoint_name=self-cleavage experimental_value=0.16
biopolymer_sequence="CCGCCUAACACUGCCAAUGCCGGUCCCAAGCCCUGAUGAAAGUGGAGGGGGCGG [A38G G34U]" endpoint_name=self-cleavage experimental_value=0.74
biopolymer_sequence="CCGCCUAACACUGCCGAUGCCGGUCCCAAGCCCGGAUAAACGUGGAGGGGGCGG [A16G A41C]" endpoint_name=self-cleavage experimental_value=0.99
